Reported inhibition values for a set of compounds
- experimental-target: Endonuclease 8-like 1 (Homo sapiens) (UniProt Q96FI4);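 note: fluorescence at 594 nm from quenched duplex DNA oligonucleotides released by NEIL1 cleavage and strand separation, reported as reduction of this enzyme activity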
- Sequence (Q96FI4 whole entry): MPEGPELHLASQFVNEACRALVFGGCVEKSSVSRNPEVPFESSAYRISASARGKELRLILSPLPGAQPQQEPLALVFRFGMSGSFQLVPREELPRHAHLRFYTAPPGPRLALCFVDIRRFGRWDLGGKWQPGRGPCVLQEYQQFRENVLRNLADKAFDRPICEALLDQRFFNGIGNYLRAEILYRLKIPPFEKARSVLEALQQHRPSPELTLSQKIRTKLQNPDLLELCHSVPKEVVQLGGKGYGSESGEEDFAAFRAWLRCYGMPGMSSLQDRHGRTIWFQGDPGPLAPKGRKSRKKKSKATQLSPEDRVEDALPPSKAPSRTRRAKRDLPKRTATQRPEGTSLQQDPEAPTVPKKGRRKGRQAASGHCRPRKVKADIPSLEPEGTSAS
- measurement-context: Compound Concentration 10.0 uM, Hit No
- Description: Inhibition of NEIL1 by quantifying inhibition of NEIL1-mediated cleavage and dissociation of quenched duplex DNA oligonucleotides, measured as fluorescence at 594 nm.
Give just the number in %; leave the unit off.

Query: // lookup inhibition for CCCNS(=O)(=O)Nc1ncnc(OCCOc2ncc(Br)cn2)c1-c1ccc(Br)cc1
Reply: -4.06

Here's the next entry for you.
Query: // lookup inhibition for C=C1/C(=C\C=C2/CCC[C@]3(C)[C@@H]([C@H](C)CCCC(C)(C)O)CC[C@@H]23)C[C@@H](O)C[C@@H]1O
Reply: -6.8

---

Reported inhibition values for a set of molecules
- experimental-target: Single-strand selective monofunctional uracil DNA glycosylase (Homo sapiens) (UniProt Q53HV7);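 note: enzymatic SMUG1 assay coupled with APE1, reading fluorescence at 594 nm released when a quenched double-stranded DNA oligonucleotide substrate is cleaved and separated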
- Sequence (Q53HV7 whole entry): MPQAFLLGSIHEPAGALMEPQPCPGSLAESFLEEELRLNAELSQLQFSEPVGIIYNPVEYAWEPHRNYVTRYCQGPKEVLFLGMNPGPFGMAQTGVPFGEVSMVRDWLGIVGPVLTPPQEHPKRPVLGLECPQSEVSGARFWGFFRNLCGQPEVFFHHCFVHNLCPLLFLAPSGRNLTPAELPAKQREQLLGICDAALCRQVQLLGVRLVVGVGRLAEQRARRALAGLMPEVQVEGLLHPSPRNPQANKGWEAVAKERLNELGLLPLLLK
- measurement-context: Compound Concentration 10.0 uM, Hit No
- Description: Inhibition of SMUG1 by quantifying inhibition of SMUG1-mediated cleavage and dissociation of quenched duplex DNA oligonucleotides, measured as fluorescence at 594 nm. To generate a functional strand incision and increase turn-over this assay is coupled to APE1.
Give just the number in %; leave the unit off.

Query: // lookup inhibition for CCOC(=O)Nc1ccc2c(c1)N(C(=O)CN(CC)CC)c1ccccc1CC2
Reply: 15.8

Query: // lookup inhibition for C[C@@H](OC[C@@]1(c2ccccc2)CC[C@]2(CCC(=O)N2)CN1)c1cc(C(F)(F)F)cc(C(F)(F)F)c1
Reply: -1.58

Query: // lookup inhibition for CC(C)c1ccc(CC(=O)N2CCC[C@@H](c3cccc(OC(C)(C)C(=O)O)c3)C2)cc1
Reply: 12.4

Query: // lookup inhibition for Cc1ccc2nc(NCCN)c3ncc(C)n3c2c1
Reply: 44.2

Query: // lookup inhibition for O=C(Nc1nc2cccc(-c3ccc(CN4CCS(=O)(=O)CC4)cc3)n2n1)C1CC1
Reply: 27.3

New cases:
Query: // lookup inhibition for Cc1cccc([C@H](C)c2c[nH]cn2)c1C
Reply: -5.51

Query: // lookup inhibition for CC(C)(O)c1cnc(N2C[C@@]3(CCC[C@](C)(Cn4cnc5ccc(C#N)cc54)C3)OC2=O)cn1
Reply: 2.98

Query: // lookup inhibition for CCOC(=O)c1ccc(C#Cc2ccc3c(c2)C(C)(C)CCS3)nc1
Reply: 8.77

Query: // lookup inhibition for Cc1cc(OCCC(C)(C)O)cc(C)c1-c1ccc(F)c2c1CC[C@H]2Oc1ccc2c(c1)OC[C@H]2CC(=O)O
Reply: 18.5
